tested on: OVCAR-3 ovarian; assay: NCI-60 one-dose screen, 48 h (100 = growth as untreated, 0 = no growth, -100 = all killed); conditions: 10 µM unless noted
This is part of a sample that, as a whole, favours compounds with a hit. Of some 83,000 tested, about 20% had one in any assay. Calls of active or inactive are those of the source. Rule for the calls: active = growth percent below 10; inactive = the rest.
Exercise: state measured growth for each of the compounds provided.

Given O=C(/C=C/c1cccnc1)NCCCCC1CCCN(C(=O)c2ccccc2)C1 (stereo unspecified) , state its recorded growth.
74.7% (inactive)

Given Cc1cc(=O)n2n1-c1ccc(Cl)cc1NC(=O)C2 , state its recorded growth.
108% (inactive)

Given CCC1=C(c2ccc(OC)cc2)C(C)(C)Oc2cc(O)c(CN3CCCC3)cc21 , state its recorded growth.
83.4% (inactive)

Given COc1cc(Oc2cc(-c3cccnc3)ccc2NC(=O)Nc2ccc(F)cc2F)cc(OC)c1OC , state its recorded growth.
102% (inactive)

Given Cc1ccc(C(=O)Nc2ccc(Cl)cc2C(=O)NCc2ccccc2)cc1 , state its recorded growth.
91.6% (inactive)

Given c1ccc(N2CCN(c3nncc4ccccc34)CC2)nc1 , state its recorded growth.
99.9% (inactive)

---

test system: SNB-75 CNS; test: NCI-60 one-dose screen, 48 h; details: 10 µM unless noted
This is part of a sample that, as a whole, favours compounds with a hit. Of some 83,000 tested, about 20% had one in any assay. Calls of active or inactive are those of the source. Rule for the calls: active = growth percent below 10; inactive = the rest.
Pick one and only one: class 1 (active), class 0 (inactive)

What is the recorded call for this compound in the test? CCCc1cc(=O)n2c(C(=O)Nc3ccccc3OC)c(C(=O)Nc3ccc(F)cc3)sc2n1
class 0

What is the recorded call for this compound in the test? ClC1=C(Cl)C(Cl)=C(Cl)C1=C/C=C/c1ccccc1
class 0

What is the recorded call for this compound in the test? COC(=O)[C@]1(CCSC)N[C@H](c2cn(-c3ccccc3)nc2C)[C@@H]2C(=O)N(c3ccc(C)cc3)C(=O)[C@@H]21
class 0

What is the recorded call for this compound in the test? O=C(/C=C/c1ccc(Cl)cc1)c1ccccc1
class 0

What is the recorded call for this compound in the test? Cc1cc(NC(=O)Nc2cc(Cl)ccc2C)no1
class 0

What is the recorded call for this compound in the test? O=C(CSCC(=O)N/N=C/c1ccccc1O)N/N=C\c1ccccc1O
class 0

What is the recorded call for this compound in the test? OCCOc1c(Cl)cc(Cl)cc1Cl
class 0

What is the recorded call for this compound in the test? COc1ccc2c(c1)C(=O)c1c-2c(=O)n(CCCCCCC(=O)NO)c2ccccc12
class 0

What is the recorded call for this compound in the test? CCC(c1ccccc1)c1noc(CCN(CC)CC)n1 (stereo unspecified)
class 0

What is the recorded call for this compound in the test? Cn1cc(-c2csc(-c3c[nH]c4ncccc34)n2)c2cc(Br)cnc21
class 1

What is the recorded call for this compound in the test? COc1cc2cn3c4ccc(O)cc4nc(N)c3c2cc1OC
class 1

---

tested on: UO-31 renal; experiment: NCI-60 one-dose screen, 48 h (100 = growth as untreated, 0 = no growth, -100 = all killed); conditions: 10 µM unless noted
This is part of a sample that, as a whole, favours compounds with a hit. Of some 83,000 tested, about 20% had one in any assay.
Label True for high-side growth (at or above 70%) and False for low-side growth (below it).

Quick check: does O=C(O)C(=O)O have growth greater than or equal to 70%?
True

Quick check: does Cc1cc(NC(=O)Nc2cccc3ccccc23)no1 have growth greater than or equal to 70%?
True

Quick check: does COc1cc(/C=C2\COc3ccc(O)cc3C2=O)cc(OC)c1 have growth greater than or equal to 70%?
False

Quick check: does COc1ccc(C2=NN(C(C)=O)C(c3cc(OC)c(OC)c(OC)c3)C2)cc1 (stereo unspecified) have growth greater than or equal to 70%?
True

Quick check: does CCCCCCCCCCCCCCCCCC1=NC(C)(C)CN1CCO have growth greater than or equal to 70%?
False

Quick check: does CCC1=C(c2ccc(OC)cc2)C(C)(C)Oc2cc(O)c(CN3CCCC3)cc21 have growth greater than or equal to 70%?
False

Quick check: does CSC1=Nc2c(c(C)c(-c3ccccc3)n2CCCN2CCCCC2)C2=NC(=O)C[C@H](C)N12 have growth greater than or equal to 70%?
False

Quick check: does CCN(CC)CCCCNc1c2ccccc2[n+](C)c2c1[nH]c1ccccc12 have growth greater than or equal to 70%?
False

Quick check: does COc1ccc(-c2cn(-c3ccccc3)c(-c3ccccc3)n2)cc1OC have growth greater than or equal to 70%?
False

Quick check: does CCCCCCCCCCC[C@@H](C[C@H]1OC(=O)[C@H]1CCCCCC)OC(=O)[C@@H](CC(C)C)NC=O have growth greater than or equal to 70%?
False
